Just for reference, ChEMBL document CHEMBL3507680 is where these values come from.

Overview of reported cytotoxicity at 70.5 h across a group of compounds:
procedure summary: Human HepG2 cell viability assay in 384 well format
Type: toxicity, cell-based
Design: dose 125 nL, time 70.5 hour; concentration not given beside the values
condition: HepG2 cells, read-out: Inhibition
Number in %, nothing else.

Record excerpt, results attached:
[
  {
    "compound": "CC(C)c1cc(C(=O)NCCn2nnc3ccccc32)no1",
    "reported endpoint": "cytotoxicity at 70.5 h",
    "measured value": 41.3
  },
  {
    "compound": "CCc1nsc(N2CCN(C(=O)c3ccnc(N(C)C)c3)CC2)n1",
    "reported endpoint": "cytotoxicity at 70.5 h",
    "measured value": -6.45
  },
  {
    "compound": "c1cncc(-c2nc3c(c(NCC4(c5ccncc5)CC4)n2)CCC3)c1",
    "reported endpoint": "cytotoxicity at 70.5 h",
    "measured value": -0.48
  }
]

Documented cytotoxicity at 70.5 h of Cc1cnn(CC2CCCN2C(=O)Cc2c(C)noc2Cl)c1 (stereo unspecified) : -4.41

Documented cytotoxicity at 70.5 h of COc1ccc(-n2nc(C(C)C)nc2COC(C)C)cc1 : 20.2

Documented cytotoxicity at 70.5 h of CN(C)[C@@H]1CN(C(=O)Cc2ccsc2)[C@@H]2CCCO[C@H]12 : 16.1

Documented cytotoxicity at 70.5 h of Cn1cc(CNC2CCCN(Cc3noc(C4CC4)n3)C2)cn1 (stereo unspecified) : 3.36

Documented cytotoxicity at 70.5 h of c1ccc(CN2CCN3C[C@H](Oc4cccnc4)C[C@H]3C2)nc1 : -3.66

Documented cytotoxicity at 70.5 h of CCC(Nc1nc(C(F)(F)F)nc2ccccc12)C(=O)O (stereo unspecified) : 2.5

Documented cytotoxicity at 70.5 h of Nc1cc(-c2c[nH]nc2C2CCCN2S(=O)(=O)c2ccccc2)ccn1 (stereo unspecified) : -2.78

Documented cytotoxicity at 70.5 h of CN(CC(N)=O)Cc1csc(-c2ccc(F)cc2)n1 : -0.0734

---

procedure summary: Human HepG2 cell viability assay in 384 well format
Assay type: toxicity, cell-based
Design: dose 125 nL, time 70.5 hour; concentration not given beside the values
condition: HepG2 cells, read-out: Inhibition
Overview of reported cytotoxicity at 70.5 h across a group of molecules:
Number in %, nothing else.

[
  {
    "molecule": "c1ccc(CCN2CCCC(Cn3ccnc3)C2)cc1 (centres undefined)",
    "measured value": -10.4
  }
]

Documented cytotoxicity at 70.5 h of Cc1ccc(CC(=O)N2CSCC2C(=O)N(C)Cc2ccco2)o1 (centres undefined) : -12.2

Documented cytotoxicity at 70.5 h of CCCC(C)CS(=O)(=O)NCc1cccnc1OC (centres undefined) : 1.49

Documented cytotoxicity at 70.5 h of CN(C)c1ccc(C(=O)Nc2ccn(CCc3ccncc3)n2)cn1 : 0.589

Documented cytotoxicity at 70.5 h of O=C(CN1CCCCC1Cn1cncn1)NCc1ccccn1 (centres undefined) : -4.27

Documented cytotoxicity at 70.5 h of COC(=O)c1cc(NCc2cscn2)ccc1C : -4.82

Documented cytotoxicity at 70.5 h of CC(C)N1CC2(CCCN(c3ccnc4ccccc34)C2)CCC1=O (centres undefined) : -0.494

Documented cytotoxicity at 70.5 h of CN(CC(=O)N1CCN(c2ncccn2)CC1)c1ccc(Cl)cn1 : -7.47

Documented cytotoxicity at 70.5 h of O=C1NC2(CCN(CCO)CC2)CC1c1ccccc1 (centres undefined) : -2.09

---

procedure summary: Human HepG2 cell viability assay in 384 well format
Type: toxicity, cell-based
Design: dose 125 nL, time 70.5 hour; concentration not given beside the values
condition: HepG2 cells, read-out: Inhibition
Please enter 1.0 where cytotoxicity at 70.5 h is greater than or equal to -10%, and 0.0 where it is lower.

Some entries whose results are on file:
[
  {
    "compound": "CNC(=O)N1CCC2(CC1)c1ncc(-c3cccc(F)c3)n1CCN2C",
    "group": 1.0
  },
  {
    "compound": "CC1(C)CC(N2Cc3nc(N4CCCC4)ncc3C2=O)CC(C)(C)N1",
    "group": 0.0
  },
  {
    "compound": "COc1ccc(C(C)NC(=O)NCCCn2cncn2)cc1F (stereo unspecified)",
    "group": 1.0
  },
  {
    "compound": "CCC(=O)N1CCN(C(=O)c2cn3ccsc3n2)[C@H]2CS(=O)(=O)C[C@H]21",
    "group": 0.0
  },
  {
    "compound": "CCc1cnc(CNC(=O)N2CCCC(C(=O)NC)C2)s1 (stereo unspecified)",
    "group": 1.0
  },
  {
    "compound": "N#CC1(NC(=O)Cn2nnc(-c3cc4ccccc4o3)n2)CCCC1",
    "group": 0.0
  },
  {
    "compound": "Cc1nc(C)n(CC2CCCN(CCOc3cccc(C#N)c3)C2)n1 (stereo unspecified)",
    "group": 1.0
  },
  {
    "compound": "CC1CCN(Cn2nc(-c3ccc(F)cc3)oc2=O)CC1",
    "group": 1.0
  }
]

Turning now to a further record.
Input: In plain terms: is recorded cytotoxicity at 70.5 h at least -10% for COc1nc2ccn(CCc3cc(O)nc(C)n3)c(=O)c2cc1C#N ?
Output: 1.0

---

procedure summary: Human HepG2 cell viability assay in 384 well format
Assay type: toxicity, cell-based
Set-up: dose 125 nL, time 70.5 hour; concentration not given beside the values
condition: HepG2 cells, read-out: Inhibition
reported endpoint: cytotoxicity at 70.5 h (%)
Number in %, nothing else.

[
  {
    "compound": "CCn1c(=O)n(CCC(=O)N(C)Cc2ccc(C)o2)c2ccccc21",
    "measured value": -4.18
  },
  {
    "compound": "Cc1cc(=O)n(C)cc1NC(=O)CC1CCC1",
    "measured value": -2.84
  },
  {
    "compound": "CN1CCN(Cc2cscn2)CC(C(=O)N(C)C)C1 (centres undefined)",
    "measured value": 15.4
  }
]

Documented cytotoxicity at 70.5 h of CN(C)C(=O)N1Cc2nnn(C)c2C(COCc2cccnc2)C1 (centres undefined) : -2.6

Documented cytotoxicity at 70.5 h of COCc1noc(Cn2ccc3ccccc3c2=O)n1 : -5.61

Documented cytotoxicity at 70.5 h of CCCc1cc(C(=O)N2C[C@H]3CC=C(C)C[C@H]3C2)ccn1 : -8.24

---

Overview of reported cytotoxicity at 70.5 h across a group of molecules:
procedure summary: Human HepG2 cell viability assay in 384 well format
Assay type: toxicity, cell-based
Parameters: dose 125 nL, time 70.5 hour; concentration not given beside the values
condition: HepG2 cells, read-out: Inhibition
Number in %, nothing else.

Documented cytotoxicity at 70.5 h of CN(Cc1cc(Br)cn1C)C(=O)Cc1cccnc1 : -9.83

Documented cytotoxicity at 70.5 h of CCn1nc(C)cc1C(=O)N1CCC(Nc2ccc(C)nn2)CC1 : -85.5

Documented cytotoxicity at 70.5 h of c1ccc(NCc2cn3c(n2)CN(Cc2cccs2)CC3)nc1 : 8.31

---

Overview of reported cytotoxicity at 70.5 h across a group of compounds:
procedure summary: Human HepG2 cell viability assay in 384 well format
Type: toxicity, cell-based
Parameters: dose 125 nL, time 70.5 hour; concentration not given beside the values
condition: HepG2 cells, read-out: Inhibition
Number in %, nothing else.

Documented cytotoxicity at 70.5 h of CCC(C)Oc1cc(C(=O)Nc2nccs2)ccn1 (configuration not stated) : 0.776

Documented cytotoxicity at 70.5 h of CCc1ccc(CN(C)C(=O)c2ccc(CSc3nnc[nH]3)o2)nc1 : -11.2

Documented cytotoxicity at 70.5 h of COCC1CN(C(=O)c2ccoc2C)Cc2nccn2C1 (configuration not stated) : 22.7

Documented cytotoxicity at 70.5 h of CNc1cc2c(nn1)CCN(C(=O)C1CCCc3ccccc31)C2 (configuration not stated) : -19

Documented cytotoxicity at 70.5 h of COCCN1CCCC2(CCN(c3cccc(C(F)(F)F)n3)C2)C1=O (configuration not stated) : -9.08

Documented cytotoxicity at 70.5 h of CN(C)C(=O)N1C[C@@H]2COC[C@]2(c2nnc(C3CC3)o2)C1 : -10.1

Documented cytotoxicity at 70.5 h of CC(C)(C)C(=O)NS(=O)(=O)c1ccc(C#N)c(C(F)(F)F)c1 : 7.04

Documented cytotoxicity at 70.5 h of CCC(=O)N1CCN(C(=O)NC2CCc3ccccc3C2)CC1 (configuration not stated) : -4.1

Documented cytotoxicity at 70.5 h of Cc1cccc(C(=O)N2CCN(CCOC(C)C)CC2)n1 : -6.81

---

Overview of reported cytotoxicity at 70.5 h across a group of molecules:
procedure summary: Human HepG2 cell viability assay in 384 well format
Assay type: toxicity, cell-based
Parameters: dose 125 nL, time 70.5 hour; concentration not given beside the values
condition: HepG2 cells, read-out: Inhibition
Number in %, nothing else.

Documented cytotoxicity at 70.5 h of CCNC(=O)c1ccc(NC2CCOC3(CCCCC3)C2)nn1 (stereo unspecified) : 16.8
